Entries and their TI50 values follow.
Test system: Human immunodeficiency virus 1
test-name: Inhibition of HIV-1 replication in human T-cell by using XTT assay.
Format: functional

Would you please look over these solved cases?
O=C(N/N=C\c1ccc(Cl)cc1Cl)c1ccccc1SSc1ccccc1C(=O)N/N=C\c1ccc(Cl)cc1Cl    >15.9
CC(=O)NCCSS(=O)(=O)CCCCS(=O)(=O)SCCNC(C)=O    >1.6
O=C(O)c1ccccc1SSc1ccccc1C(=O)O    >1.7
Nc1cc(C(=O)O)ccc1SSc1ccc(C(=O)O)cc1N    >6.4

Let's switch to this compound now.
Enquiry: TI50 of CNCCSS(=O)(=O)CCNC on Human immunodeficiency virus 1?
Return: >1.8

Data origin: ChEMBL document CHEMBL1129635
